procedure-summary: A qHTS for Small Molecule Inhibitors of Shiga Toxin
protocol-conditions: Vero cells, Shiga toxin protein synthesis inhibition reporter; at 38.7 µM
In all, about 290,000 compounds went through this assay and about 27,000 (9.3%) were called active. Cut-off read from the data, not from the text of the source: active = inhibition mostly above about 28% (no sharp cut-off); inactive = mostly below about 43%. The sample holds actives, similar compounds and a random draw of the others, so the mix is not that of the screen.
Assign a class; possible classes are YES for active, NO for inactive

{"compound": "COC(=O)c1cn(C(=O)c2ccc(Cl)cc2)c2ccccc12", "group": "NO"}

Now consider the entry below.
query: Entry CN(C)c1ccc(/C=C/C(=O)c2ccc(C(C)(C)C)cc2)cc1[N+](=O)[O-] : call = ?
result: NO

====

Quick reference: inhibition of the listed items.
procedure-summary: A qHTS for Small Molecule Inhibitors of Shiga Toxin
protocol-conditions: Vero cells, Shiga toxin protein synthesis inhibition reporter; at 38.7 µM, hits give high values
Screen size: about 290,000 compounds; about 27,000 (9.3%) were called active. What follows is part of a selection rich in actives, with near analogues and random picks from the rest.
Reply with just the number (in %).

{"molecule": "O=C(NCCCc1ccccc1)C1CCC(=O)N(CCc2ccc(Cl)cc2)C1 (centres undefined)", "unit-annotation": "%", "inhibition": 35.2}

query: Using the record for COc1ccc(/C=N/OCc2ccccc2C#N)c(OC)c1 , report its inhibition.
result: 70.8

query: // same read-out, input: CCN(CC)S(=O)(=O)c1ccc(N2CCCC2)c(NS(=O)(=O)c2cccs2)c1
result: 21

query: // same read-out, input: Cc1ccc(S(=O)(=O)N(CCCN(C)C)Cc2ccc3c(c2)OCO3)cc1
result: 9.86

====

procedure-summary: A qHTS for Small Molecule Inhibitors of Shiga Toxin
protocol-conditions: Vero cells, Shiga toxin protein synthesis inhibition reporter; at 38.7 µM, hits give high values
Screen size: about 290,000 compounds; about 27,000 (9.3%) were called active. This excerpt belongs to a sample that is enriched for actives.
experimental-endpoint: inhibition

{"compound": "Cc1cc(NC(=O)c2cnn3cccnc23)n(-c2ccccc2)n1", "experimental-endpoint": "inhibition", "endpoint-value": "-5.01% (inactive)"}

query: Using the record for CCN1C(=S)N[C@@H](c2cccc(C(F)(F)F)c2)C(C(=O)OC)=C1C , report its inhibition.
result: -10.1% (inactive)

query: // same read-out, input: CCOc1ccccc1OCCCNCc1ccccc1
result: 8.72% (inactive)

query: // same read-out, input: O=C(Nc1ccc(Cl)cn1)c1cnn2cccnc12
result: 85.1% (active)

query: // same read-out, input: COC(=O)c1ccc(N2CCOCC2)c(NC(=O)c2ccc(Br)o2)c1
result: 31.4% (inactive)

query: // same read-out, input: CCOC(=O)c1cccc(NC(=O)C2CCN(c3ncnc4c3nc3n4CCCCC3)CC2)c1
result: 10.8% (inactive)

====

procedure-summary: A qHTS for Small Molecule Inhibitors of Shiga Toxin
protocol-conditions: Vero cells, Shiga toxin protein synthesis inhibition reporter; at 38.7 µM, hits give high values
Hit rate of the full screen: of about 290,000 compounds, about 27,000 (9.3%) were called active. For the sample, actives were picked, then their nearest neighbours and some compounds at random.
Quick reference: inhibition of the listed items.
Reply with just the number (in %).

{"entry-smiles": "CC(C)(C)NC(=O)C(=O)NN=C1CCCCCCC1", "unit-annotation": "%", "inhibition": 60.6}
{"entry-smiles": "COc1ccc(OCC(=O)Nc2nnc(-c3ccco3)s2)cc1", "unit-annotation": "%", "inhibition": 2.24}
{"entry-smiles": "Cc1ccc(OCC(=O)Nc2nnc(-c3ccco3)s2)cc1", "unit-annotation": "%", "inhibition": 4.17}
{"entry-smiles": "O=C(CCc1ccccc1)Nc1cccc(-c2nnc(-c3ccco3)o2)c1", "unit-annotation": "%", "inhibition": 19.4}
{"entry-smiles": "COc1ccc(-c2nnc(SCc3cccnc3)o2)cc1", "unit-annotation": "%", "inhibition": 48.5}

query: Using the record for COc1ccc(-c2nnc(SC(=O)N3c4ccccc4Sc4ccccc43)o2)cc1 , report its inhibition.
result: 18.6

query: // same read-out, input: Cc1ccc(OCC(=O)Nc2ccc(-c3nnc(-c4ccco4)o3)cc2)cc1
result: 22.1

query: // same read-out, input: COc1ccc(C(=O)CSc2nnc(-c3ccco3)o2)cc1
result: 10.9

query: // same read-out, input: CCCCOc1ccc(-c2nnc(-c3ccco3)o2)cc1
result: 85.9

query: // same read-out, input: CC(C)NC(=S)NN=C1CCCCCCCCCCC1
result: 4.86

query: // same read-out, input: Cc1cc(-c2csc(N)n2)c(C)n1-c1ccccc1
result: 34.4

query: // same read-out, input: Cc1ccc(OCC(=O)Nc2ccc(-c3nc4ncccc4o3)cc2)cc1
result: 2.45

====

procedure-summary: A qHTS for Small Molecule Inhibitors of Shiga Toxin
protocol-conditions: Vero cells, Shiga toxin protein synthesis inhibition reporter; at 38.7 µM, hits give high values
Hit rate of the full screen: of about 290,000 compounds, about 27,000 (9.3%) were called active. The entries come from a sample that favours actives as a whole.
Outcome label depends on inhibition relative to 10%: at/above gives 1, below gives -1.

Reference set (3 entries):
{"compound": "O=C(NCc1ccccc1Cl)C1CCCN1S(=O)(=O)c1ccc(F)cc1 (stereo unspecified)", "group": -1}
{"compound": "CCOc1ccc(NC(=O)CSc2nncn2C)cc1", "group": -1}
{"compound": "COc1cccc(/C=N/Nc2cc(C)nc(-c3ccccc3O)n2)c1O", "group": 1}

query: Check the entry O=C(CSc1ccc(/C=N/NC(=O)c2cccc(F)c2)o1)Nc1ccccc1 : does inhibition equal or exceed 10%?
result: 1

query: // same read-out, input: COc1cccc(NC(=O)CCc2nnc3ccc(N4CCC(C)CC4)nn23)c1
result: -1

query: // same read-out, input: Cc1cccc(OCC(=O)Nc2ccc(C(=O)O)cc2NC(=O)COc2cccc(C)c2)c1
result: -1

====

procedure-summary: A qHTS for Small Molecule Inhibitors of Shiga Toxin
protocol-conditions: Vero cells, Shiga toxin protein synthesis inhibition reporter; at 38.7 µM
Among all 290,000 compounds or so, about 27,000 (9.3%) were called active. Cut-off read from the data, not from the text of the source: active = inhibition mostly above about 28% (no sharp cut-off); inactive = mostly below about 43%. This excerpt belongs to a sample that is enriched for actives.
Assign a class; possible classes are label 1 = active, label 0 = inactive

Reference set (8 entries):
{"compound": "O=S(=O)(Nc1cccc(-n2cnnn2)c1)c1cnc(Cl)c(Cl)c1", "group": "label 0"}
{"compound": "Cc1cc2c(=O)n(CC(=O)NCC(=O)Nc3ccc(C(C)C)cc3)cnc2s1", "group": "label 0"}
{"compound": "O=C(N/N=C\\c1ccc(-c2ccc(Cl)c(Cl)c2)o1)C(=O)N1CCCC1", "group": "label 0"}
{"compound": "COC(=O)N/N=C/c1ccc(-c2ccc(Cl)c(Cl)c2)o1", "group": "label 1"}
{"compound": "O=C1C(=O)N(CCCN2CCOCC2)C(c2ccc([N+](=O)[O-])cc2)/C1=C(\\O)c1ccc2c(c1)OCCO2 (stereo not given)", "group": "label 0"}
{"compound": "Cc1cnc(NC(=O)CSc2c(Cl)cccc2Cl)s1", "group": "label 0"}
{"compound": "Cc1cnc(NC(=O)CSc2nnc(-c3ccccc3)n2Cc2ccccc2)s1", "group": "label 0"}
{"compound": "Cc1cnc(NC(=O)CSc2nnc(-c3ccc(Cl)cc3Cl)n2N)s1", "group": "label 1"}

query: Entry O=C(c1cnn2ccccc12)N1CCc2ccccc21 : call = ?
result: label 1

query: // same read-out, input: Cc1ccc(Cn2nnc3c(=O)[nH]c(C4CCN(S(=O)(=O)/C=C/c5ccccc5)CC4)nc32)cc1
result: label 0

====

procedure-summary: A qHTS for Small Molecule Inhibitors of Shiga Toxin
protocol-conditions: Vero cells, Shiga toxin protein synthesis inhibition reporter; at 38.7 µM, hits give high values
Hit rate of the full screen: of about 290,000 compounds, about 27,000 (9.3%) were called active. This is one part of a sample in which actives are shown more often than they occur.
experimental-endpoint: inhibition (%)
Reply with just the number (in %).

{"molecule": "Cc1ccc(SCCSc2ncccn2)cc1", "inhibition (%)": 38.6}
{"molecule": "Cc1nc(-c2ccc([N+](=O)[O-])cc2)c(-c2ccccc2)o1", "inhibition (%)": -2.19}
{"molecule": "Cc1c(Cl)cccc1NC(=S)NCC(O)c1ccccc1 (stereo not drawn)", "inhibition (%)": 8.12}
{"molecule": "O=C(N[C@@H](Cc1ccccc1)C(=O)OCc1ccccc1)c1nc[nH]c1C(=O)N[C@@H](Cc1ccccc1)C(=O)OCc1ccccc1", "inhibition (%)": -7.22}
{"molecule": "O=CN1CCN(C(=O)c2ccc3c(c2)OCO3)CC1", "inhibition (%)": 2.8}
{"molecule": "CC(C)n1c(=O)c(C=Nc2ccc(Br)cc2)c(O)n(Cc2ccco2)c1=O", "inhibition (%)": -2}

query: Using the record for CN(C)c1ccc(-c2nnc(-c3cccnc3)o2)cc1 , report its inhibition.
result: 104

query: // same read-out, input: CN(c1ccccc1)c1ccc(/C=c2\s/c(=C(/C#N)C(=O)C(C)(C)C)n(Cc3ccco3)c2=O)cc1
result: -15.7

query: // same read-out, input: CCOC(=O)[C@@H]1[C@H]2COc3cc(OC)ccc3[C@@H]2N2C(=O)N(c3cccc(C)c3)C(=O)[C@@]12C
result: -1.2

query: // same read-out, input: O=C(/C=C/c1cccs1)c1cc(Cl)ccc1OC(=O)N1CCOCC1
result: 18.1

query: // same read-out, input: O=C(Nc1ccc(NC(=O)c2cccs2)cn1)c1ccco1
result: 27.3
